Assay: Acute toxicity, oral
Type: in vivo
Conditions: mouse, in vivo; mice, single oral dose, 14 days observation; read-out: Acute Toxicity per os
Description: The acute toxicity of the test compounds was determined on groups of 10 mice each after oral administration of a single dose of 1,000 mg/kg (observation time: 14 days).
Listed here: items and their measured LD50 at 336 h.

# compound, LD50 at 336 h
records = [
    ("O=C1CCc2cc(OCCCC[S+]([O-])C3CCCCC3)ccc2N1 (stereo not shown) [K]", "> 1000 mg/kg"),
    ("CC(C)(C)c1cc([S+]([O-])CCCCOc2ccc3[nH]c(=O)ccc3c2)cc(C(C)(C)C)c1O (stereo not shown) [O]", "> 1000 mg/kg"),
    ("O=C1CCc2cc(OCCCC[S+]([O-])c3ccccc3)ccc2N1 (stereo not shown) [B]", "> 1000 mg/kg"),
    ("O=C1CCc2cc(OCCCC[S+]([O-])c3cc(Cl)ccc3Cl)ccc2N1 (stereo not shown) [S]", "> 1000 mg/kg"),
    ("O=c1ccc2cc(OCCCCS(=O)(=O)c3ccccn3)ccc2[nH]1 [T]", "> 1000 mg/kg"),
    ("O=C1CCc2cc(OCCCCS(=O)(=O)c3ccc(Cl)c(Cl)c3)ccc2N1 [R]", "> 1000 mg/kg"),
    ("O=C1CCc2cc(OCCCC[S+]([O-])c3ccc(Cl)cc3)ccc2N1 (stereo not shown) [I]", "> 1000 mg/kg"),
    ("O=C1CCc2cc(OCCCCS(=O)(=O)c3ccccc3)ccc2N1 [Compound C]", "> 1000 mg/kg"),
    ("Cc1cc(=O)[nH]c2ccc(OCCCC[S+]([O-])c3ccccc3)cc12 (stereo not shown) [Q]", "> 1000 mg/kg"),
    ("O=C1CCc2cc(OCCCC[S+]([O-])c3ccc(Cl)c(Cl)c3)ccc2N1 (stereo not shown) [U]", "> 1000 mg/kg"),
    ("O=C1CCc2cc(OCCCCSc3ccccc3)ccc2N1 [A]", "> 1000 mg/kg"),
    ("O=C1CCc2cc(OCCCC[S+]([O-])c3ccccn3)ccc2N1 (stereo not shown) [E]", "> 1000 mg/kg"),
    ("O=c1ccc2cc(OCCCC[S+]([O-])c3ccc(Cl)c(Cl)c3)ccc2[nH]1 (stereo not shown) [P]", "> 1000 mg/kg"),
    ("O=C1CCc2cc(OCCCC[S+]([O-])c3ccc4ccccc4c3)ccc2N1 (stereo not shown) [L]", "> 1000 mg/kg"),
    ("O=C1CCc2cc(OCC[S+]([O-])c3ccccc3)ccc2N1 (stereo not shown) [G]", "> 1000 mg/kg"),
    ("O=C1CCc2cc(OCCCCS(=O)(=O)c3ccccn3)ccc2N1 [F]", "> 1000 mg/kg"),
    ("COc1ccccc1[S+]([O-])CCCCOc1ccc2c(c1)CCC(=O)N2 (stereo not shown) [M]", "> 1000 mg/kg"),
    ("O=C1CCc2cc(OCCCC[S+]([O-])Cc3ccccc3)ccc2N1 (stereo not shown) [H]", "> 1000 mg/kg"),
    ("O=C1CCc2cc(OCCCCSc3ccccn3)ccc2N1 [D]", "> 1000 mg/kg"),
]

* * *

system: phosphodiesterase (PDE), supernatant of human blood platelets; assay: PDE inhibition (3H-cAMP hydrolysis); type: biochemical; settings: human blood platelet PDE, 1 μmol/liter 3H-cAMP, pH 7.4, 15 minutes, 37° C.
pIC50: −log10 of the molar value.
Listed here: items and their measured pIC50.
measured_metric: pIC50

# compound, measured_metric, test_value
data = [
    ("O=C1CCc2cc(OCC[S+]([O-])c3ccccc3)ccc2N1 (stereo not shown) [G]", "pIC50", 5.47),
    ("O=C1CCc2cc(OCCCCSc3ccccc3)ccc2N1 [A]", "pIC50", 6.11),
    ("O=c1ccc2cc(OCCCC[S+]([O-])c3ccc(C4CCCCC4)cc3)ccc2[nH]1 (stereo not shown) [DD]", "pIC50", 7.40),
    ("CC(C)(C)c1cc([S+]([O-])CCCCOc2ccc3[nH]c(=O)ccc3c2)cc(C(C)(C)C)c1O (stereo not shown) [O]", "pIC50", 7.10),
    ("O=c1ccc2cc(OCCCC[S+]([O-])c3ccc(Cl)c(Cl)c3)ccc2[nH]1 (stereo not shown) [P]", "pIC50", 6.66),
    ("O=c1ccc2cc(OCCCC[S+]([O-])c3ccccc3)ccc2[nH]1 (stereo not shown) [N, 6-(4-Phenylsulfinyl-butoxy)-carbostyril]", "pIC50", 6.33),
    ("O=c1ccc2c(Br)c(OCCCC[S+]([O-])c3ccccc3)ccc2[nH]1 (stereo not shown) [Y]", "pIC50", 7.00),
    ("CC(C)(C)c1ccc([S+]([O-])CCCCOc2ccc3[nH]c(=O)ccc3c2)cc1 (stereo not shown) [EE]", "pIC50", 7.52),
    ("O=C1CCc2cc(OCCCCS(=O)(=O)c3ccccc3)ccc2N1 [Compound C]", "pIC50", 5.82),
    ("O=C1CCc2cc(OCCCC[S+]([O-])c3ccccc3)ccc2N1 (stereo not shown) [B]", "pIC50", 5.72),
]

* * *

test system: thrombocyte aggregation in platelet-rich plasma of healthy human donors; experiment: Thrombocyte aggregation inhibiting activity by the method of Born and Cross (platelet-rich plasma); type: cell-based; details: ADP-induced (about 1×10^-6 mol/l), optical density, read-out: EC50 (50% inhibition of thrombocyte aggregation), ADP
Group membership follows EC50 per the scheme b0 (below 10 µM), b1 (10 µM to below 20 µM), b2 (20 µM or more)

# molecule, class_label
records = [
    ("O=C1CCc2cc(OCC[S+]([O-])c3ccccc3)ccc2N1 (centres unmarked)", "b1"),
    ("COc1ccccc1[S+]([O-])CCCCOc1ccc2c(c1)CCC(=O)N2 (centres unmarked)", "b2"),
    ("O=C1CCc2cc(OCCCC[S+]([O-])c3ccccn3)ccc2N1 (centres unmarked)", "b2"),
    ("O=C1CCc2cc(OCCCC[S+]([O-])C3CCCCC3)ccc2N1 (centres unmarked)", "b1"),
    ("O=C1CCc2cc(OCCCCSc3ccccn3)ccc2N1", "b2"),
    ("O=C1CCc2cc(OCCCC[S+]([O-])Cc3ccccc3)ccc2N1 (centres unmarked)", "b1"),
    ("O=c1ccc2cc(OCCCC[S+]([O-])c3ccccc3)ccc2[nH]1 (centres unmarked)", "b0"),
    ("CC(C)(C)c1cc([S+]([O-])CCCCOc2ccc3[nH]c(=O)ccc3c2)cc(C(C)(C)C)c1O (centres unmarked)", "b0"),
    ("O=c1ccc2cc(OCCCC[S+]([O-])c3ccc(Cl)c(Cl)c3)ccc2[nH]1 (centres unmarked)", "b0"),
    ("O=C1CCc2cc(OCCCCSc3ccccc3)ccc2N1", "b2"),
]

* * *

Listed here: items and their measured change in vivo at 10 mg/kg.
Test system: conscious mice
Assay: Prolongation of the bleeding time (mouse tail)
Assay type: in vivo
Conditions: po, 10 mg/kg orally, after 1 hour, compared to control group, read-out: Prolongation of the bleeding time in % after one hour
Method: The function of the thrombocytes can be determined by measuring the bleeding time. The normal bleeding time in human beings is in the range of 1 to 3 minutes and needs intact thrombozytes in a sufficient number. If the number of thrombocytes is normal and the bleeding time is prolonged, this signifies a disturbed function of the thrombocytes. This is found in some congenital defects of thrombocyte function (V. Willebrand's disease, for example). […]
measured_metric: change in vivo at 10 mg/kg

# compound, test_value
rows = [
    ("O=C1CCc2cc(OCCCCS(=O)(=O)c3ccc(Cl)c(Cl)c3)ccc2N1", "30%"),
    ("CC(C)(C)c1cc([S+]([O-])CCCCOc2ccc3[nH]c(=O)ccc3c2)cc(C(C)(C)C)c1O (stereo not shown)", "73%"),
    ("O=C1CCc2cc(OCCCCSc3ccccc3)ccc2N1", "145%"),
    ("O=C1CCc2cc(OCCCCS(=O)(=O)c3ccccn3)ccc2N1", "91%"),
]

* * *

test system: Platelet Thromboses in the Rat; assay: Influence on platelet thromboses in the rat (electrical irritation of a vein); assay type: in vivo; details: male rats, five animals per dose, 20 minutes observation, vs. untreated group; dose not given
Threshold rule: Percentage Reduction of the Average Thrombosis Size greater than or equal to 20% is Y; below that, N.

# compound, measured_target, class_label
measured = [
    ("CC(C)(C)[S+]([O-])CCCCOc1ccc2c(c1)CCC(=O)N2 (stereo not drawn)", "Platelet Thromboses in the Rat", "N"),
    ("O=C1CCc2cc(OCCCC[S+]([O-])c3ccc(Cl)c(Cl)c3)ccc2N1 (stereo not drawn)", "Platelet Thromboses in the Rat", "Y"),
    ("O=c1ccc2cc(OCCCC[S+]([O-])c3ccc(C4CCCCC4)cc3)ccc2[nH]1 (stereo not drawn)", "Platelet Thromboses in the Rat", "N"),
    ("O=C1CCc2cc(OCCCC[S+]([O-])c3ccccc3)ccc2N1 (stereo not drawn)", "Platelet Thromboses in the Rat", "Y"),
    ("Cc1cc(=O)[nH]c2ccc(OCCCC[S+]([O-])c3ccccc3)cc12 (stereo not drawn)", "Platelet Thromboses in the Rat", "Y"),
    ("O=C1CCc2cc(OCCCC[S+]([O-])c3ccccn3)ccc2N1 (stereo not drawn)", "Platelet Thromboses in the Rat", "N"),
]

The measurements presented in this section are drawn from patent US4329347A.
